assayed system: T1, mouse IL-13 (mouse, UniProt P20109 22-131, limits assumed)
T1 construct: also called murine IL-13
T1 sequence (looked up): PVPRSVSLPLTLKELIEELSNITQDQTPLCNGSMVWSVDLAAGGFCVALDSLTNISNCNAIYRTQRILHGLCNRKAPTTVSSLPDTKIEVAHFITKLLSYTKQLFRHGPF
test name: epitope mapping with mouse IL-13 chimeric molecules (ELISA)
readout: binding result

mAb 693 (antibody, V domains shown, also called sc693) VH: QVQLQESGPGLVKPSETLSLTCSVSGGSISSYYWSWIRQPAGKGLEWIGRIYMTGRTNYNSSLKSRVTMSIDTSKNQLSLKLSFMTAADTAVYYCARESGSSYSYDYWGQGTLVTVSS VL: SYVLTQPPSVSVAPGQTARITCGGNNIGSKGVHWYQQKPGQAPVLVVYDDSDRPSGIPERFSGSNSGNTATLTISRVEAGDEADYYCQVWVSSSDHHVVFGGGTKLTVV: no binding
mAb 623 (antibody, V domains shown, also called sc623) VH: EVQLVESGGGLVKPGGSLRLSCAASGFTFSNAWMSWVRQAPGKGLEWVGRIRSEIDGGTTNYAAPVKGRFTISRDDSKNTLYLQMNSLKTEDTAVYYCATDQVGAYYGDYYGMDVWGQGTTVTVSS VL: SYELTQPPSVSVSPGQTARITCSGDALPEKYAYWYQQKSGQAPVLVIYEDSKRPSGIPERFSGSSSGTMATLTISGAQVEDEADYYCHSTDSSGNHGVFGGGTKLTVLG: no binding
